Target: T1, h-FAP-His (human, UniProt Q12884 26-760)
T1 construct: range 26-760; Bought recombinant protein with a His tag; also called human FAP-His protein; FAP recombinant protein with a His tag
T1 sequence (Q12884 26-760 limits assumed): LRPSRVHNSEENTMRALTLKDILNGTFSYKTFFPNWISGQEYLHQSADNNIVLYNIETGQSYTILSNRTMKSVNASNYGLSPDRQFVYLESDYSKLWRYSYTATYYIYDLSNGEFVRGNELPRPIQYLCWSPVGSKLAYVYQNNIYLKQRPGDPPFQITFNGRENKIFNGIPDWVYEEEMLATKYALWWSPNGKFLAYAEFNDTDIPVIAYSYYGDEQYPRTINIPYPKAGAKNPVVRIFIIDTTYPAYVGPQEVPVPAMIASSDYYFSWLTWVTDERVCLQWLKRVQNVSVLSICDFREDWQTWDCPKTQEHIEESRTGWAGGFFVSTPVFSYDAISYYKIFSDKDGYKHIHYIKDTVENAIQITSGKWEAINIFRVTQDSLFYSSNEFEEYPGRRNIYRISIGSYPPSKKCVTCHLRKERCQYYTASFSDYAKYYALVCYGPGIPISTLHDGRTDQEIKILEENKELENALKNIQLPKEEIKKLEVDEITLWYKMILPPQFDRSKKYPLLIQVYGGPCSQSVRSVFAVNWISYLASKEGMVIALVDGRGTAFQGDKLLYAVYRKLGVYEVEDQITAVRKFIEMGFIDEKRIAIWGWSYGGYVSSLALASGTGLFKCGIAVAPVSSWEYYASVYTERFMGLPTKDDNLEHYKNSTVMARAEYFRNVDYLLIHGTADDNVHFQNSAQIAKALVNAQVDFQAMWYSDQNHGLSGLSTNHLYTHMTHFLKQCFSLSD
Assay: SPR, antibody captured by anti-human IgG Fc, h-FAP-His analyte
ENDPOINT_NAME: kon

binder="Ab15 (antibody, human IgG1, kappa, L234A L235A, V domains shown, Fully human, IgG1 / kappa; also called anti-FAP antibody Ab15) VH: QMQLVQSGAEVKKPGASVTVSCRASGYSFADHFIHWVRQAPGQGFQWMGWINPNRGVTHHAQDFQGRVAMTRDMSTDTVYMELTSLRSDDTAVYYCARDESLTARPYYFYGFDVWGQGTLVTVSS VL: EIVLTQSPSSVSASVGDRVTITCRASQGISSWLAWYQQKPGKAPKSLIYAASSLQSGVPSRFSGSGSGTDFTLTISSLQPEDFATYYCQQANSFPPTFGGGTKVEIKR" test_result="488000 M⁻¹ s⁻¹"
